- Tested on: 20S proteasome β5 subunit, chymotrypsin-like (ChT-L) activity
- Construct: gene PSMB5; native 20S proteasome purified from lymphoblastoid cells
- METHOD_DESCRIPTION: fluorogenic AMC peptide hydrolysis
- Assay type: biochemical
- CONDITION_DETAILS: Suc-LLVY-AMC, 37 °C, 30 min, enzyme pretreated with compound; read-out: IC50 (μm)^aChT-L
- Description: fluorogenic AMC peptide hydrolysis on 20S proteasome β5 subunit, chymotrypsin-like (ChT-L) activity
MEASURED_PROPERTY: pIC50
Scale explanation: pIC50 corresponds to minus log10 of a concentration expressed in moles per litre.

Find pIC50 for Cc1c(O)cccc1C(=O)N[C@@H](CC(C)C)C(=O)NCCCCNC1=C(Cl)C(=O)c2ccccc2C1=O on 20S proteasome β5 subunit, chymotrypsin-like (ChT-L) activity and write it down.
4.94

Find pIC50 for O=C(NC(Cc1ccccc1)C(=O)NCCCCNC1=C(Cl)C(=O)c2ccccc2C1=O)c1ccc([N+](=O)[O-])cc1 (centres unmarked) on 20S proteasome β5 subunit, chymotrypsin-like (ChT-L) activity and write it down.
5.04

Find pIC50 for Cc1c(O)cccc1C(=O)N[C@@H](Cc1ccccc1)C(=O)NCCNC1=C(Cl)C(=O)c2ccccc2C1=O on 20S proteasome β5 subunit, chymotrypsin-like (ChT-L) activity and write it down.
6.07

Find pIC50 for O=C1C(Cl)=C(NCCCCNC(=O)[C@H](Cc2ccccc2)NC(=O)c2cccc3ccccc23)C(=O)c2ccccc21 on 20S proteasome β5 subunit, chymotrypsin-like (ChT-L) activity and write it down.
5.03

Find pIC50 for Cc1c(O)cccc1C(=O)N[C@@H](Cc1ccccc1)C(=O)NCCCCNC1=C(Cl)C(=O)c2ccccc2C1=O on 20S proteasome β5 subunit, chymotrypsin-like (ChT-L) activity and write it down.
4.76

Find pIC50 for O=C(N[C@@H](CO)C(=O)NCCCCNC1=C(Cl)C(=O)c2ccccc2C1=O)c1ccccc1 on 20S proteasome β5 subunit, chymotrypsin-like (ChT-L) activity and write it down.
4.08

Find pIC50 for Cc1c(O)cccc1C(=O)N[C@@H](CO)C(=O)NCCCCNC1=C(Cl)C(=O)c2ccccc2C1=O on 20S proteasome β5 subunit, chymotrypsin-like (ChT-L) activity and write it down.
4.34

Find pIC50 for O=C(N[C@@H](Cc1ccccc1)C(=O)NCCCCNC1=C(Cl)C(=O)c2ccccc2C1=O)c1ccccc1 on 20S proteasome β5 subunit, chymotrypsin-like (ChT-L) activity and write it down.
4.99

Find pIC50 for O=C(NC(CO)C(=O)NCCNC1=C(Cl)C(=O)c2ccccc2C1=O)c1ccc([N+](=O)[O-])cc1 (centres unmarked) on 20S proteasome β5 subunit, chymotrypsin-like (ChT-L) activity and write it down.
4.08

---

- Test system: 20S proteasome β5 subunit, chymotrypsin-like (ChT-L) activity
- Construct: gene PSMB5; native 20S proteasome purified from lymphoblastoid cells
- METHOD_DESCRIPTION: fluorogenic AMC peptide hydrolysis
- Type: biochemical
- CONDITION_DETAILS: Suc-LLVY-AMC, 37 °C, 30 min, enzyme pretreated with compound; read-out: IC50 (μm)^aChT-L
Classify: t when IC50 is strictly less than 9 µM; f when IC50 is not.

IC50 strictly < 9 µM for this molecule? CC(C)C[C@H](NC(=O)c1ccccc1)C(=O)NCCNC1=C(Cl)C(=O)c2ccccc2C1=O
f

IC50 strictly < 9 µM for this molecule? CC(C)C[C@H](NC(=O)c1cccc2ccccc12)C(=O)NCCNC1=C(Cl)C(=O)c2ccccc2C1=O
t

IC50 strictly < 9 µM for this molecule? NC(=O)C[C@H](NC(=O)c1ccccc1)C(=O)NCCCCNC1=C(Cl)C(=O)c2ccccc2C1=O
f

IC50 strictly < 9 µM for this molecule? NC(=O)C[C@H](NC(=O)c1cccc2ccccc12)C(=O)NCCCCNC1=C(Cl)C(=O)c2ccccc2C1=O
f

IC50 strictly < 9 µM for this molecule? CC(C)C[C@H](NC(=O)c1ccccc1)C(=O)NCCCCNC1=C(Cl)C(=O)c2ccccc2C1=O
f
